Source listed as ChEMBL document CHEMBL1201862.

GI50 by entry:
Tested on: OVCAR-3
Assay: NCI tumour cell line growth inhibition, 48 h
The source made the active and inactive calls. Rule as the data show it: active = GI50 up to about 1.1 µM and inactive = higher. Non-standard residues stand in square brackets, D forms with d. Residues, ends and D or L forms follow the SMILES beside them. ξ: configuration not given here. *: point of attachment. dThr(3ξ) = CC(O)[C@@H](N)C(=O)O; dNMeL = CN[C@H](CC(C)C)C(=O)O; OBn = c1ccc(CO*)cc1; ξLac = CC(O)C(=O)O

Here is how some molecules turned out for GI50.
Molecule: COc1cc2[nH]c(=O)c3cc(-c4ccccc4)cc4c(Cl)nc(c1OC)c2c43
Obs Value: 3.79 µM (inactive)
--
Molecule: CN(C)CCS/C(=N\c1ccccc1)N1C=COC=C1
Obs Value: 46 µM (inactive)
--
Molecule: N#Cc1c2nc3ccccc3nc2n2ccc3ccccc3c12
Obs Value: > 100 µM (inactive)
--
Molecule: CCN(CC)C(=O)CCn1cc(F)c(=O)[nH]c1=O
Obs Value: > 100 µM (inactive)
--
Molecule: COc1cc(OC)c2nc(C)c(CCCl)c(Cl)c2c1
Obs Value: > 100 µM (inactive)

Entry CC(C)CCC[C@@H](C)[C@H]1CC[C@H]2[C@@H]3CC=C4C[C@@H](OC(=O)c5cccc6c(=O)c7ccccc7[nH]c56)CC[C@]4(C)[C@H]3CC[C@]12C : reported GI50 = ?
> 75 µM (inactive)

Entry CCOC(=O)CC(=O)ON(C)C(C)=O : reported GI50 = ?
> 100 µM (inactive)

Entry CC(C)N(C(=O)c1cccc(C(=O)N(C(C)C)C(C)C)c1)C(C)C : reported GI50 = ?
> 100 µM (inactive)

Entry COc1cccc(N2C(=O)c3c(c4[nH]c5ccccc5c4c4ccc(C(C)(C)C)cc34)C2=O)c1 : reported GI50 = ?
> 100 µM (inactive)

Entry NC(=O)c1ccccc1NC(=O)C(=O)C(C(=O)c1ccc(Cl)c(Cl)c1)C1OC(=O)c2ccccc21 (stereo not given) : reported GI50 = ?
35.1 µM (inactive)

Entry CC(=O)OC(C)[C@@H](NC(=O)[C@@H](CC(C)C)N(C)C(=O)[C@@H]1CCCN1C(=O)C(C)O)C(=O)OCc1ccccc1 (stereo not given in full) (H-[ξLac]P[dNMeL][dThr(3ξ)](Ac)-OBn) : reported GI50 = ?
> 100 µM (inactive)

Entry CC[n+]1[b-](C(C)(C)C)n(/N=C/C(C)(C)C)[b-](C(C)(C)C)[n+]1CC : reported GI50 = ?
> 100 µM (inactive)

Entry c1ccc2sc(SCN(C3CCCCC3)C3CCCCC3)nc2c1 : reported GI50 = ?
> 100 µM (inactive)

Entry Cc1cn(C2CC(OP(=O)(O)OCC3OC(n4c[n+]([BH2-]C#N)c5c(=O)[nH]c(N)nc54)CC3O)C(CO)O2)c(=O)[nH]c1=O (stereo not given) : reported GI50 = ?
> 100 µM (inactive)

###

Tested on: HCT-116
Assay: NCI tumour cell line growth inhibition, 48 h
Calls of active or inactive are those of the source. No stated cut-off is given here; in the data, active = GI50 up to about 1.1 µM and inactive = higher. Where a SMILES comes first, the peptide text is derived from it. The star is where a group is joined. Boc = CC(C)(C)OC(=O)*
Measured Metric: GI50

Compound: CN(C)/C=C/c1c2c(nc3ccccc13)C(=O)c1cccnc1C2=O
Obs Value: 0.197 µM (active)
--
Compound: COC(=O)C(C)NC(=O)C(CCSC)NC(=O)C(Cc1ccccc1)NC(=O)OC(C)(C)C (stereo not drawn) (Boc-Phe-Met-Ala-OMe; configuration not given here)
Obs Value: > 100 µM (inactive)
--
Compound: COc1cc2nc(-c3cccs3)nc(N3CCN(c4ccccc4)CC3)c2cc1OC
Obs Value: > 100 µM (inactive)
--
Compound: N#CC(C(=N/NC(N)=S)/C(=N/NC(N)=S)C(C#N)c1ccc(Cl)cc1)c1ccc(Cl)cc1 (stereo not given)
Obs Value: > 100 µM (inactive)

Now examine the next entry.
Entry CC1=NN(c2nc(N)nc(CC#N)n2)C(C)(C)C1 : reported GI50 = ?
> 100 µM (inactive)

###

Tested on: COLO 205
Assay: NCI tumour cell line growth inhibition, 48 h
Calls of active or inactive are those of the source. Cut-off read from the data, not from the text of the source: active = GI50 up to about 1.1 µM and inactive = higher.
GI50 by entry:

Here is how some compounds turned out for GI50.
Compound: FC(F)(F)c1ccc2nc(Sc3ccc4ccccc4c3)cnc2c1
Measured Metric: GI50
Obs Value: 75 µM (inactive)
//
Compound: O=C(O)C1=NN=C(C(=O)O)NN1
Measured Metric: GI50
Obs Value: > 100 µM (inactive)

Entry Cc1cc(C)n(CC(Cn2nc(C)cc2C)=C(/C(Cl)=C(/Cl)Nc2ccc([N+](=O)[O-])cc2)[N+](=O)[O-])n1 : reported GI50 = ?
2.67 µM (inactive)

Entry Cc1cn(Cc2ccccc2CCl)c(=O)[nH]c1=O : reported GI50 = ?
17.1 µM (inactive)

Entry O=c1cc(-c2ccccc2)oc2c1ccc1nc3ccccc3c(O)c12 : reported GI50 = ?
> 100 µM (inactive)

Entry CCOC(=O)C(=O)C(C#N)c1ccc(Cl)cc1 (configuration not stated) : reported GI50 = ?
> 100 µM (inactive)

Entry Cn1cnc([N+](=O)[O-])c1Sc1nncc2[nH]cnc12 : reported GI50 = ?
> 100 µM (inactive)

Entry CCC12CCCN(Cc3ccccc3)C1c1c(n(C)c3ccccc13)C(CO)C2 (configuration not stated) : reported GI50 = ?
38 µM (inactive)

Entry COc1cccc(N2C(=O)CS(=O)(=O)C2c2cccc(Oc3ccccc3)c2)c1 (configuration not stated) : reported GI50 = ?
6 µM (inactive)

Entry Nc1c2c(nc3ccccc13)CCCc1ccccc1-2 : reported GI50 = ?
8.32 µM (inactive)

Entry O=C(O)Cc1cccc2c(=O)c3ccccc3oc12 : reported GI50 = ?
> 100 µM (inactive)

Entry O=C(O)c1cc2c(cc1CC(Cc1ccc3c(c1)CCCC3)C(=O)O)CCCC2 (configuration not stated) : reported GI50 = ?
> 100 µM (inactive)

Entry N=C(N)NS(=O)(=O)c1ccc(NCCc2c3ccccc3nc3ccccc23)cc1 : reported GI50 = ?
76 µM (inactive)

###

System: SK-MEL-28
Test: NCI tumour cell line growth inhibition, 48 h
Calls of active or inactive are those of the source. No stated cut-off is given here; in the data, active = GI50 up to about 1.1 µM and inactive = higher.
GI50 by entry:

Molecule: CN(C)CCNC(=O)c1cccc(C(=O)Nc2ccccc2)c1[N+](=O)[O-]
GI50: > 100 µM (inactive)
//
Molecule: CCC1C(c2cc(OC)c(OC)c(OC)c2)c2cc3c(cc2OC1N1CCCC1)OCO3 (stereo unspecified)
GI50: 8.87 µM (inactive)
//
Molecule: NC(Cc1ccc(N(CCCl)CCCl)cc1)C(=O)NC(CCC(=O)O)C(=O)O (stereo unspecified)
GI50: > 100 µM (inactive)

Entry OC(C/C=N/Nc1ccccc1)(C(F)(F)Cl)C(F)(F)Cl : reported GI50 = ?
> 10 µM (inactive)

Entry Cn1cnc([N+](=O)[O-])c1Sc1nncc2[nH]cnc12 : reported GI50 = ?
> 100 µM (inactive)

###

Tested on: SF-539
Assay: NCI tumour cell line growth inhibition, 48 h
Activity calls are given as the source filed them. Cut-off read from the data, not from the text of the source: active = GI50 up to about 1.1 µM and inactive = higher.
Measured Metric: GI50

Here is how some molecules turned out for GI50.
Molecule: CSc1cc(Cl)c(C)cc1S(=O)(=O)NC(=O)NNc1ccc(F)cc1
Study System: SF-539
Measured Metric: GI50
Obs Value: > 100 µM (inactive)

Molecule: O=C(O)[C@H](Cc1ccccc1)NCCN1CCC[C@H]1C(=O)O
Study System: SF-539
Measured Metric: GI50
Obs Value: > 100 µM (inactive)

Molecule: COc1ccc2c(c1)-c1c(c3cc(OC)ccc3n1CCN(C)C)CC2
Study System: SF-539
Measured Metric: GI50
Obs Value: 15.4 µM (inactive)

Entry O=C(O)C1=NN=C(C(=O)O)NN1 : reported GI50 = ?
> 100 µM (inactive)

Entry O=C(O)c1ccccc1/N=C/c1ccc(N(CCCl)CCCl)cc1 : reported GI50 = ?
> 66.5 µM (inactive)

Entry O=c1c2cc(Br)ccc2nc(-c2ccccc2)n1NCC1(O)OCC(O)C(O)C1O (stereo not drawn) : reported GI50 = ?
> 100 µM (inactive)

Entry OC(C/C=N/Nc1ccccc1)(C(F)(F)Cl)C(F)(F)Cl : reported GI50 = ?
> 10 µM (inactive)

Entry O=C1/C(=C(/Br)I)c2ccccc2-c2ccccc21 : reported GI50 = ?
14.6 µM (inactive)

Entry N#Cc1c2nc3ccccc3nc2n2ccc3ccccc3c12 : reported GI50 = ?
> 100 µM (inactive)

###

Test system: BT-549
Experiment: NCI tumour cell line growth inhibition, 48 h
Active and inactive are the calls of the source. Cut-off read from the data, not from the text of the source: active = GI50 up to about 1.1 µM and inactive = higher.
Hi there, use one of these labels in your reply, thanks! active, inactive

Molecule: Cc1cc(=O)[nH]c2cc(NC(=O)C(C)NC(=O)C(C)NC(=O)C(C)NC(=O)OC(C)(C)C)ccc12 (stereo unspecified)
Study System: BT-549
Class: inactive

Assay outcome for COc1cc(C(=O)Nc2c3ccccc3nc3ccccc23)cc(OC)c1OC : what was it?
inactive

Assay outcome for CCOC(=O)C1(F)S(=O)(=O)OCCOS1(=O)=O : what was it?
inactive

Assay outcome for Clc1ncnc2c1nc(C#Cc1ccccc1)n2Cc1ccccc1 : what was it?
inactive

Assay outcome for Cc1cc(C)c2c(O)cc(-c3cccc(F)c3)nc2n1 : what was it?
active

Assay outcome for S=c1[nH]c2ccc(Br)cc2c(=S)s1 : what was it?
inactive
